Reference for the values: patent US6620817B1

Test system: male mice of ICR strain
protocol.notes: Subacute toxicity test (repetitive oral administration for 14 days)
Assay type: in vivo
Design: key: −: no significant differences (Student's t-test); +: p < 0.05 (Student's t-test); ++: p < 0.01 (Student's t-test)
cond: dose 100 mg/kg orally once a day for 14 days; blood plasma; male ICR mice
outcome.measure: ALT (alanine aminotransferase), significance vs solvent-treated control

> print(dat)
                                   compound                tested.on  data.value
1  CN(C(=O)CNc1nc(-c2ccc(C(F)(F)F)cc2)nc(-c2ccccc2)c1Cl)C1CC1 [Example 2]  male mice of ICR strain           −
2  CCCN(CCC)C(=O)CNc1nc(-c2ccc(C(F)(F)F)cc2)nc(C)c1C [Reference Example A, reference compound]  male mice of ICR strain           −
3  CN(C)C(=O)CNc1nc(-c2ccc(C(F)(F)F)cc2)nc(-c2ccccc2)c1Cl [Example 1]  male mice of ICR strain           −

* * *

Test system: male mice of ICR strain
protocol.notes: Subacute toxicity test (repetitive oral administration for 14 days)
Assay type: in vivo
cond: remarks observed during the 14-day oral test; male ICR mice
Experimental: Subacute toxicity test was carried out by repetitive administration of a test compound to mice for 14 days. That is, a test compound was orally administered to male mice of ICR strain once a day for 14 days. On the day following the final administration, the mice were anesthetized with Nembutal, and the blood was taken out therefrom, and further various organs were taken out. The wet-weight of each organ was determined, and was converted into a weight per body, and then compared. […]
outcome.measure: Other remarks

> print(dat)
                                   compound  outcome.measure            data.value
1  CN(C(=O)CNc1nc(-c2ccc(C(F)(F)F)cc2)nc(-c2ccccc2)c1Cl)C1CC1 [Example 2]    Other remarks  no particular remark
2  CN(C)C(=O)CNc1nc(-c2ccc(C(F)(F)F)cc2)nc(-c2ccccc2)c1Cl [Example 1]    Other remarks  no particular remark
3  CCCN(CCC)C(=O)CNc1nc(-c2ccc(C(F)(F)F)cc2)nc(C)c1C [Reference Example A, reference compound]    Other remarks  no particular remark
